Attribution: the supplement of paper PMC7156485

test system: HCC1569; assay: H1.0 immunofluorescence intensity relative to DMSO (% of DMSO); higher = stronger H1.0 induction, active = 140 or more; conditions: concentration: 10 µM; 24 h
Record rule met whenever H1.0 immunofluorescence intensity is at 100 or higher; record rule not met when lower.

Previously resolved entries follow.
[
  {
    "compound": "O=C(/C=C/c1cccnc1)NCCCCC1CCN(C(=O)c2ccccc2)CC1",
    "group.label": "rule not met"
  },
  {
    "compound": "CNC(=O)C1OC(n2cnc3c(NCc4cccc(I)c4)ncnc32)C(O)C1O (stereo not drawn)",
    "group.label": "rule not met"
  }
]

q: State whether the measured H1.0 immunofluorescence intensity reaches 100, counting equality as reaching it, for `CCCCCCCCc1ccc(CCC(N)(CO)CO)cc1.Cl`
a: rule met

q: State whether the measured H1.0 immunofluorescence intensity reaches 100, counting equality as reaching it, for O=c1cc(N2CCOCC2)oc2c1ccc1ccccc12 [DNA-PK Inhibitor II]
a: rule met

q: State whether the measured H1.0 immunofluorescence intensity reaches 100, counting equality as reaching it, for `O=[N+]([O-])c1cccc2cn[nH]c12`
a: rule not met

====

test system: HCC1569; assay: cell number relative to DMSO (% of DMSO); higher = more cells (less growth inhibition / toxicity); details: concentration: 10 µM; 24 h
value.type: cell number
Respond with the number and no other words.

[
  {
    "compound": "CCOC(=O)C=C(C)C=CC=C(C)C=Cc1c(C)cc(OC)c(C)c1C [Etretinate]",
    "result.value": 104
  },
  {
    "compound": "CN(C)c1cc2c(Nc3ccc4c(cnn4Cc4ccccc4)c3)ncnc2cn1",
    "result.value": 82.9
  },
  {
    "compound": "CNC(=O)c1cc(Oc2ccc(NC(=O)Nc3ccc(Cl)c(C(F)(F)F)c3)cc2)ccn1",
    "result.value": 45.9
  },
  {
    "compound": "CC1OC(n2cc(F)c(=O)[nH]c2=O)C(O)C1O (stereo not drawn)",
    "result.value": 88.3
  },
  {
    "compound": "CC(C)(C)NCC(O)c1cc(O)cc(O)c1.CC(C)(C)NCC(O)c1cc(O)cc(O)c1.O=S(=O)(O)O (stereo not drawn) [Terbutaline hemisulfate]",
    "result.value": 106
  },
  {
    "compound": "O=C(Nc1cccc(C(F)(F)F)c1)Nc1cc(S(=O)(=O)NC2CC2)ccc1-c1ccsc1",
    "result.value": 91.2
  },
  {
    "compound": "Cl.O[C@H](c1cc(C(F)(F)F)nc2c(C(F)(F)F)cccc12)[C@@H]1CCCCN1",
    "result.value": 52
  }
]

Now examine the next entry.
q: Any idea what cell number was measured for `COc1ccc(OC)c2c(=S)c3ccccc3[nH]c12` ?
a: 105

====

tested on: TDF; assay: H1.0 immunofluorescence intensity relative to DMSO (% of DMSO); higher = stronger H1.0 induction, active = 120 or more; conditions: concentration: 10 µM; 24 h
value.type: H1.0 immunofluorescence intensity

Illustrative cases are given below, each with its answer.
[
  {
    "molecule": "C[C@@H](Oc1cc(-c2cnn(C3CCNCC3)c2)cnc1N)c1c(Cl)ccc(F)c1Cl",
    "H1.0 immunofluorescence intensity": "161 (active)"
  },
  {
    "molecule": "CON=C(C(=O)NC1C(=O)N2C(C(=O)[O-])=C(CSc3nc(=O)c([O-])nn3C)CSC12)c1csc(N)n1.[Na+].[Na+] (stereo unspecified) [Ceftriaxone sodium]",
    "H1.0 immunofluorescence intensity": "99.3 (inactive)"
  },
  {
    "molecule": "CC1CNc2c(cccc2S(=O)(=O)NC(CCCN=C(N)N)C(=O)N2CCC(C)CC2C(=O)O)C1 (stereo unspecified) [Argatroban]",
    "H1.0 immunofluorescence intensity": "94.1 (inactive)"
  },
  {
    "molecule": "CN(C)CCCn1cc(C2=C(c3c[nH]c4ccccc34)C(=O)NC2=O)c2ccccc21",
    "H1.0 immunofluorescence intensity": "115 (inactive)"
  },
  {
    "molecule": "O=c1[nH]cc(F)c(=O)[nH]1 [5-Fluorouracil]",
    "H1.0 immunofluorescence intensity": "97.7 (inactive)"
  },
  {
    "molecule": "CCN(CC)CC#CCOC(=O)C(O)(c1ccccc1)C1CCCCC1.Cl (stereo unspecified) [Oxybutynin Chloride]",
    "H1.0 immunofluorescence intensity": "94.5 (inactive)"
  },
  {
    "molecule": "Cl.Clc1cccc(Cl)c1NC1=NCCN1 [Clonidine hydrochloride]",
    "H1.0 immunofluorescence intensity": "94.1 (inactive)"
  },
  {
    "molecule": "CC(C)(C)C1(O)CCN2CC3c4ccccc4CCc4cccc(c43)C2C1.Cl (racemic)",
    "H1.0 immunofluorescence intensity": "88.7 (inactive)"
  },
  {
    "molecule": "CCCCCCCCCCCCCCCC(=O)OC1C(SC)OC(C(NC(=O)C2CC(CCC)CN2C)C(C)Cl)C(O)C1O.Cl (stereo unspecified) [Clindamycin palmitate.HCl]",
    "H1.0 immunofluorescence intensity": "93.3 (inactive)"
  },
  {
    "molecule": "CC(C)Cc1ccc(CC(=O)O)cc1 [(4-isobutylphenyl)acetic acid]",
    "H1.0 immunofluorescence intensity": "91.5 (inactive)"
  }
]

q: Any idea what H1.0 immunofluorescence intensity was measured for O=c1nc[nH]c2c1ncn2C1CCC(CO)O1 (stereo unspecified) [Didanosine] ?
a: 95.7 (inactive)

q: Any idea what H1.0 immunofluorescence intensity was measured for `OCCn1cc(-c2cnc3nnn(Cc4ccc5ncccc5c4)c3n2)cn1` ?
a: 99 (inactive)

q: Any idea what H1.0 immunofluorescence intensity was measured for N#CC(=Cc1ccc(O)c(O)c1)C(=O)NCc1ccccc1 [Tyrphostin AG 490] ?
a: 88.7 (inactive)

q: Any idea what H1.0 immunofluorescence intensity was measured for CS(=O)(=O)CCNCc1ccc(-c2ccc3ncnc(Nc4ccc(OCc5cccc(F)c5)c(Cl)c4)c3c2)o1.Cc1ccc(S(=O)(=O)O)cc1.Cc1ccc(S(=O)(=O)O)cc1 [Lapatinib ditosylate] ?
a: 93.5 (inactive)

q: Any idea what H1.0 immunofluorescence intensity was measured for `S=C(NCc1ccc2c(c1)OCO2)N1CCN(c2ncnc3c2oc2ccccc23)CC1` ?
a: 103 (inactive)

q: Any idea what H1.0 immunofluorescence intensity was measured for CN(C)CCCSc1ccccc1NC(=O)C=Cc1ccccc1 [Cinanserin] ?
a: 102 (inactive)

====

test system: HCC1569; assay: H1.0 immunofluorescence intensity relative to DMSO (% of DMSO); higher = stronger H1.0 induction, active = 140 or more; conditions: concentration: 10 µM; 24 h
Tick one outcome: active, inactive

Previously resolved entries follow.
[
  {
    "compound": "CCC1=CC2CN(C1)Cc1c([nH]c3ccccc13)C(C(=O)OC)(c1cc3c(cc1OC)N(C)C1C(O)(C(=O)OC)C(OC(C)=O)C4(CC)C=CCN5CCC31C54)C2 (configuration not stated)",
    "group.label": "active"
  },
  {
    "compound": "O=C1NC(=O)C(c2cn(CCCO)c3ncccc23)=C1c1cnccn1",
    "group.label": "inactive"
  },
  {
    "compound": "c1ccc(-c2[nH]ncc2-c2ccnc3ccccc23)nc1",
    "group.label": "inactive"
  }
]

q: What outcome does the record of this test show for CC1OC(OC2C(Oc3cc(O)c4c(=O)cc(-c5ccc(O)cc5)oc4c3)OC(CO)C(O)C2O)C(O)C(O)C1O (configuration not stated) ?
a: inactive

q: What outcome does the record of this test show for O=c1cc(-c2ccccc2)[nH]c2nc(Cl)ccc12 [7-Chloro-4-hydroxy-2-phenyl-1,8-naphthyridine] ?
a: inactive

q: What outcome does the record of this test show for CCCCCCCCCCCCCCCCOCC(COP(=O)([O-])OCC[N+](C)(C)C)OC (configuration not stated) ?
a: inactive

q: What outcome does the record of this test show for `CC1=NN(c2ccc(C(=O)O)cc2)C(=O)/C1=C\c1ccc(-c2cc(C)c(C)cc2[N+](=O)[O-])o1` ?
a: inactive

====

Each entry below lists one item and its recorded cell number value.
test system: TDF; assay: cell number relative to DMSO (% of DMSO); higher = more cells (less growth inhibition / toxicity); conditions: concentration: 10 µM; 24 h
Respond with the number and no other words.

[
  {
    "molecule": "C[n+]1ccccc1CC(=O)c1ccc(Br)cc1.[I-] [2-[2-(4-bromophenyl)-2-oxoethyl]-1-methylpyridinium iodide]",
    "assay.target": "TDF",
    "cell number": 87.6
  },
  {
    "molecule": "COc1cc2c(cc1OC)-c1[nH]nc(Nc3cccc(F)c3)c1C2 [PDGF Receptor Tyrosine Kinase Inhibitor IV]",
    "assay.target": "TDF",
    "cell number": 8.88
  }
]

q: Any idea what cell number was measured for Cl.NOCC(=O)O.NOCC(=O)O [O-(Carboxymethyl)hydroxylamine hemihydrochloride] ?
a: 97.9

q: Any idea what cell number was measured for CCOc1ccc2ccc(=O)oc2c1 [7-ethoxy-2H-chromen-2-one] ?
a: 108

q: Any idea what cell number was measured for OC1C=C2CCN3Cc4cc5c(cc4C(C1O)C23)OCO5 (stereo not given) [Lycorine] ?
a: 53.3

q: Any idea what cell number was measured for Cc1cnc(C(=O)O)c[n+]1[O-] [Acipimox] ?
a: 108

q: Any idea what cell number was measured for CC(C)NCC(O)c1ccc(O)c(O)c1.O=C(O)C(O)C(O)C(=O)O (stereo not drawn) [R(-)-Isoproterenol (+)-bitartrate] ?
a: 79.3

q: Any idea what cell number was measured for CCCCCCCCCCCCCCCCOCC(COP(=O)([O-])OCC[N+](C)(C)C)OC (stereo not given) [1-Hexadecyl-2-methylglycero-3 PC] ?
a: 95.4

q: Any idea what cell number was measured for CC(C)NCC(O)COc1ccc(CCOCC2CC2)cc1.Cl (stereo not given) [Betaxolol hydrochloride] ?
a: 122

q: Any idea what cell number was measured for CC(CSC(=O)c1ccccc1)C(=O)N1CC(Sc2ccccc2)CC1C(=O)[O-].CC(CSC(=O)c1ccccc1)C(=O)N1CC(Sc2ccccc2)CC1C(=O)[O-].[Ca+2] (stereo not given) ?
a: 119
